system: Trypanosoma cruzi; test: In vitro growth inhibition of amastigotes of Trypanosoma cruzi; type: functional, organism-based
Entries and their IC50
experimental.endpoint: IC50 (µM)

In [3]: df
Out[3]:
                                   compound  numeric_result
0       O=C(Cn1ccnc1[N+](=O)[O-])NCc1ccccc1            2.58
1  O=C(CCCCc1ccc2c(c1)OCO2)N1CCCCC1 [TETRAHYDROPIPERINE]            11.5
2  O=C(/C=C/C=C/C=C/c1ccc2c(c1)OCO2)N1CCCCC1             7.4
3     O=C(/C=C/C=C/c1ccc2c(c1)OCO2)N1CCOCC1            5.71
4       C(/C=C/c1ccc2c(c1)OCO2)=C\CN1CCCCC1            9.63
5  CC(C)N(C(=O)/C=C/C=C/c1ccc2c(c1)OCO2)C(C)C            7.77

###

tested on: Trypanosoma cruzi; experiment: In vitro growth inhibition of epimastigotes of Trypanosoma cruzi; type: functional, organism-based
pIC50: −log10 of the molar value.
experimental.endpoint: pIC50

>>> print(df.to_string())
                                   compound  reading_qualifier  numeric_result
0  O=C(/C=C/C=C/C=C/c1ccc2c(c1)OCO2)N1CCCCC1                  =            4.97
1  CC(C)N(C(=O)/C=C/C=C/c1ccc2c(c1)OCO2)C(C)C                  =            4.83
2       C(/C=C/c1ccc2c(c1)OCO2)=C\CN1CCCCC1                  =            4.76
3    O=C(/C=C/C=C/c1ccc2c(c1)OCO2)OC1CCCCC1                  <            4.08
4     O=C(/C=C/C=C/c1ccc2c(c1)OCO2)N1CCOCC1                  =            4.25
5  O=C(CCCCc1ccc2c(c1)OCO2)N1CCCCC1 [TETRAHYDROPIPERINE]                  =            4.71

###

tested on: Trypanosoma cruzi; test: In vitro growth inhibition of epimastigotes of Trypanosoma cruzi; type: functional, organism-based
pIC50: −log10 of the molar value.
The molecules listed here are annotated with their pIC50.
experimental.endpoint: pIC50

>>> df
                                   molecule  experimental_endpoint  result
0         O=C(/C=C/c1ccc2c(c1)OCO2)N1CCOCC1                  pIC50  < 4.02
1  O=C(O)/C=C/C=C/c1ccc2c(c1)OCO2 [PIPERIC ACID]                  pIC50  < 3.94
2  COc1ccc(CCNC(=O)/C=C/C=C/c2ccc3c(c2)OCO3)cc1OC                  pIC50  < 4.18
3  CN1CCN(C(=O)/C=C/C=C/c2ccc3c(c2)OCO3)CC1                  pIC50  < 4.08
4   O=C(/C=C/C=C/c1ccc2c(c1)OCO2)NCc1ccccc1                  pIC50  < 4.09
5  O=C(/C=C/c1ccc2c(c1)OCO2)N1CCCCC1 [ILEPCIMIDE]                  pIC50  < 4.02
